// data source = patent US9670227B2

Tested on: H929 multiple myeloma tumour line
Assay: In vitro cytotoxicity, Microculture Tetrazolium Assay
Format: cell-based
Conditions: Homo sapiens, NCI-H929, 48 h, H929 cells, 48 hours exposure, MTT; read-out: IC50 (μM) MTT H929
Method: The cytotoxicity studies were carried out on the H929 multiple myeloma tumour line. The cells are distributed onto microplates and exposed to the test compounds for 48 hours.
Below: a set of entries, each annotated with reported IC50.
Readout name: IC50 (µM)

INSERT INTO results (compound, assay_result) VALUES
  ('Cc1c(-c2c(-c3ccco3)sc3ncnc(OC(Cc4ccccc4OCc4ccnc(NCc5ccccc5)n4)C(=O)O)c23)ccc(OCCN2CCN(C)CC2)c1Cl (stereo not drawn)', 0.044),
  ('Cc1c(-c2c(-c3ccc(F)cc3)sc3ncnc(OC(Cc4ccccc4OCc4ccnc(C5CC5)n4)C(=O)O)c23)ccc(OCCN2CCN(C)CC2)c1Cl (stereo not drawn)', 0.028),
  ('COc1ccc(-c2nccc(COc3ccccc3CC(Oc3ncnc4sc(-c5ccc(F)cc5)c(-c5ccc(OCCN6CCN(C)CC6)c(Cl)c5C)c34)C(=O)O)n2)c(OC)c1 (stereo not drawn)', 0.005),
  ('C#CCOc1ccccc1CC(Oc1ncnc2sc(-c3ccco3)c(-c3ccc(OCCN4CCN(C)CC4)c(Cl)c3C)c12)C(=O)O (stereo not drawn)', 0.217),
  ('Cc1c(-c2c(-c3ccco3)sc3ncnc(OC(Cc4ccccc4SCC(F)(F)F)C(=O)O)c23)ccc(OCCN2CCN(C)CC2)c1Cl (stereo not drawn)', 1),
  ('Cc1c(-c2c(-c3ccco3)sc3ncnc(OC(Cc4ccccc4OCc4ccc5ccccc5n4)C(=O)O)c23)ccc(OCCN2CCN(C)CC2)c1Cl (stereo not drawn)', 0.135),
  ('CC#Cc1sc2ncnc(OC(Cc3ccccc3OCc3ccnn3CC(F)(F)F)C(=O)O)c2c1-c1ccc(OCCN2CCN(C)CC2)c(Cl)c1C (stereo not drawn)', 0.026),
  ('Cc1cc(-c2nccc(COc3ccccc3CC(Oc3ncnc4sc(-c5ccc(F)cc5)c(-c5ccc(OCCN6CCN(C)CC6)c(Cl)c5C)c34)C(=O)O)n2)ccn1 (stereo not drawn)', 0.006),
  ('COc1ccccc1-c1nccc(COc2ccccc2CC(Oc2ncnc3sc(-c4ccc(OCc5cccnc5)cc4)c(-c4ccc(OCCN5CCN(C)CC5)c(Cl)c4C)c23)C(=O)O)n1 (stereo not drawn)', 0.01),
  ('COc1cnc(COc2ccccc2CC(Oc2ncnc3sc(-c4ccco4)c(-c4ccc(OCCN5CCN(C)CC5)c(Cl)c4C)c23)C(=O)O)cn1 (stereo not drawn)', 0.068),
  ('COc1cc(COc2ccccc2CC(Oc2ncnc3sc(-c4ccc(F)cc4)c(-c4ccc(OCCN5CCN(C)CC5)c(Cl)c4C)c23)C(=O)O)nc(-c2ccccc2)n1 (stereo not drawn)', 0.066),
  ('CC#Cc1sc2ncnc(OC(Cc3ccccc3OCc3ccnc(N4CCOCC4)n3)C(=O)O)c2c1-c1ccc(OCCN2CCN(C)CC2)c(Cl)c1C (stereo not drawn)', 0.012);

* * *

biological target: Mcl-1 protein (UniProtKB primary accession number: Q07820) (Homo sapiens, UniProt Q07820); assay: Inhibition of Mcl-1 by fluorescence polarisation, Method 1; type: binding; conditions: fluorescence polarisation; Method 1, or Method 2; read-out: IC50 (M) Mcl-1 FP
Sequence (Q07820 whole entry): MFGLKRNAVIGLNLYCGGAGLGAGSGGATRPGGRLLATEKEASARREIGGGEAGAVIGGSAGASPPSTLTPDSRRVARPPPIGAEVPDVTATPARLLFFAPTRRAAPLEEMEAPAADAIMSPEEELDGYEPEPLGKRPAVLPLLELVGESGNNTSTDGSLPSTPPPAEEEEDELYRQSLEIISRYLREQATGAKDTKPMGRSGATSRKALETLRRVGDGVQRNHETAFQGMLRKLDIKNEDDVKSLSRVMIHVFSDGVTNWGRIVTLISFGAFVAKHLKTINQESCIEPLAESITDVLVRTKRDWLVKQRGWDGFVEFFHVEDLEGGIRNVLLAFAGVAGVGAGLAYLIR
Below: a set of entries, each annotated with reported IC50.
Readout name: IC50 (M)

INSERT INTO assay_data (compound, readout_name, unit_label, assay_result) VALUES
  ('COc1ccccc1C[C@@H](Oc1ncnc2sc(-c3ccc(F)cc3)c(-c3cc(F)c(OCCN4CCN(C)CC4)c(Cl)c3C)c12)C(=O)O (single isomer, unassigned) [Example 664]', 'IC50', 'M', '3.86e-08'),
  ('COc1ccccc1CC(Oc1ncnc2sc(-c3cccc(OCc4ccncc4)c3)c(-c3ccc(OCCN4CCN(C)CC4)c(Cl)c3C)c12)C(=O)O (stereo not shown)', 'IC50', 'M', '2.6e-08'),
  ('CCCCn1nccc1COc1ccccc1CC(Oc1ncnc2sc(-c3ccc(Cl)nc3)c(-c3ccc(OCCN4CCN(C)CC4)c(Cl)c3C)c12)C(=O)O (stereo not shown)', 'IC50', 'M', '4e-09'),
  ('CCc1sc2ncnc(OC(Cc3ccccc3)C(=O)O)c2c1-c1cc(Cl)c(O)c(Cl)c1C (stereo not shown) [Example 428]', 'IC50', 'M', '7.5e-09'),
  ('CC#Cc1sc2ncnc(OC(Cc3ccccc3OC)C(=O)O)c2c1-c1cc(OC)c(OCCN2CCN(C)CC2)c(Cl)c1C (stereo not shown)', 'IC50', 'M', '5.6e-08'),
  ('COc1nccc(COc2ccccc2CC(Oc2ncnc3sc(-c4ccc(F)cc4)c(-c4cnc(OCCN5CCN(C)CC5)c(Cl)c4C)c23)C(=O)O)n1 (stereo not shown)', 'IC50', 'M', '6.8e-09'),
  ('COc1ccccc1CC(Oc1ncnc2sc(-c3cccc(OCCN4CCN(C)CC4)c3)c(-c3ccc(OC)c(Cl)c3C)c12)C(=O)O (stereo not shown)', 'IC50', 'M', '1.6e-08'),
  ('CCc1sc2ncnc(OC(Cc3ccccc3)C(=O)O)c2c1-c1ccc(OCCN2CCN(C)CC2)cc1C (stereo not shown) [Example 416]', 'IC50', 'M', '7e-07'),
  ('CCc1sc2ncnc(OC(Cc3ccccc3)C(=O)O)c2c1-c1cc(Cl)c(OCCN2CCN(C)CC2)c(Cl)c1C (stereo not shown)', 'IC50', 'M', '2.9e-08'),
  ('COc1ccccc1-c1nccc(COc2ccccc2CC(Oc2ncnc3sc(-c4ccc(OCCc5ccccc5)cc4)c(-c4ccc(OCCN5CCN(C)CC5)c(Cl)c4C)c23)C(=O)O)n1 (single isomer, unassigned) [Example 766]', 'IC50', 'M', '3.66e-09');

* * *

target: Mcl-1 protein (UniProtKB primary accession number: Q07820) (Homo sapiens, UniProt Q07820); experiment: Inhibition of Mcl-1 by fluorescence polarisation, Method 1; assay type: binding; settings: fluorescence polarisation test; Method 2 values are underlined in the patent (underlining not visible here); read-out: IC50 (M) Mcl-1 FP
Below: a set of entries, each annotated with reported IC50.
Readout name: IC50

INSERT INTO assay_data (compound, experimental_system, assay_result) VALUES
  ('Cc1c(-c2c(-c3ccco3)sc3ncnc(OC(Cc4ccccc4OCc4ccncc4)C(=O)O)c23)ccc(OCCN2CCN(C)CC2)c1Cl (stereo not drawn)', 'Mcl-1 protein (UniProtKB primary accession number: Q07820) (Homo sapiens, UniProt Q07820)', '6.6e-09 M'),
  ('Cc1c(-c2c(-c3ccco3)sc3ncnc(OC(Cc4ccccc4OCC(=O)Nc4ccccc4)C(=O)O)c23)ccc(OCCN2CCN(C)CC2)c1Cl (stereo not drawn)', 'Mcl-1 protein (UniProtKB primary accession number: Q07820) (Homo sapiens, UniProt Q07820)', '9.9e-09 M'),
  ('Cc1c(-c2c(-c3ccco3)sc3ncnc(OC(Cc4ccccc4OCc4cccc(Cl)n4)C(=O)O)c23)ccc(OCCN2CCN(C)CC2)c1Cl (stereo not drawn)', 'Mcl-1 protein (UniProtKB primary accession number: Q07820) (Homo sapiens, UniProt Q07820)', '7.4e-09 M');

* * *

target: Mcl-1 protein (UniProtKB primary accession number: Q07820) (Homo sapiens, UniProt Q07820); assay: Inhibition of Mcl-1 by fluorescence polarisation, Method 1; type: binding; settings: fluorescence polarisation; Method 1, or Method 2; read-out: IC50 (M) Mcl-1 FP
Readout name: IC50

INSERT INTO measurements (molecule, experimental_system, assay_result) VALUES
  ('CCc1sc2ncnc(OC(Cc3ccccc3)C(=O)O)c2c1-c1cc(CN2CCN(C)CC2)c(O)c(Cl)c1C (stereo not drawn) [Example 430]', 'Mcl-1 protein (UniProtKB primary accession number: Q07820) (Homo sapiens, UniProt Q07820)', '1.4e-07 M'),
  ('COc1ccccc1-c1nccc(COc2ccccc2CC(Oc2ncnc3sc(-c4ccc(OCc5cccs5)cc4)c(-c4ccc(OCCN5CCN(C)CC5)c(Cl)c4C)c23)C(=O)O)n1 (stereo not drawn) [Example 777]', 'Mcl-1 protein (UniProtKB primary accession number: Q07820) (Homo sapiens, UniProt Q07820)', '1.12e-09 M'),
  ('COCCOc1ccc(-c2sc3ncnc(OC(Cc4ccccc4OCc4ccnn4CC(F)(F)F)C(=O)O)c3c2-c2ccc(OCCN3CCN(C)CC3)c(Cl)c2C)cn1 (stereo not drawn) [Example 694]', 'Mcl-1 protein (UniProtKB primary accession number: Q07820) (Homo sapiens, UniProt Q07820)', '6.4e-09 M');

* * *

Below: a set of entries, each annotated with reported IC50.
system: H929 multiple myeloma tumour line; assay: In vitro cytotoxicity, Microculture Tetrazolium Assay; format: cell-based; conditions: Homo sapiens, NCI-H929, 48 h, H929 cells, 48 hours exposure, MTT; read-out: IC50 (μM) MTT H929
Readout name: IC50 (µM)

INSERT INTO results (molecule, assay_result) VALUES
  ('Cc1cc(-c2sc3ncnc(OC(Cc4ccccc4)C(=O)O)c3c2-c2ccc(OCCN3CCN(C)CC3)c(Cl)c2C)cs1 (centres unmarked)', 1.7),
  ('Cc1c(-c2c(-c3ccc(F)o3)sc3ncnc(OC(Cc4ccccc4OCc4ccnc(-c5ccsc5)n4)C(=O)O)c23)ccc(OCCN2CCN(C)CC2)c1Cl (centres unmarked)', 0.004),
  ('Cc1c(-c2c(-c3ccco3)sc3ncnc(OC(Cc4ccccc4OCc4cnc(N5CCOCC5)nc4)C(=O)O)c23)ccc(OCCN2CCN(C)CC2)c1Cl (centres unmarked)', 0.905),
  ('CCc1sc2ncnc(OC(Cc3ccccc3F)C(=O)O)c2c1-c1ccc(OCCN2CCN(C)CC2)c(Cl)c1C (centres unmarked)', 5.11),
  ('CCCCn1nccc1COc1ccccc1CC(Oc1ncnc2sc(-c3ccc(O)cc3)c(-c3ccc(OCCN4CCN(C)CC4)c(Cl)c3C)c12)C(=O)O (centres unmarked)', 0.156),
  ('COc1ccccc1CC(Oc1ncnc2sc(-c3csc4ccsc34)c(-c3ccc(OCCN4CCN(C)CC4)c(Cl)c3C)c12)C(=O)O (centres unmarked)', 0.559),
  ('CCNC(=O)NCCCOc1ccc(-c2c(CC)sc3ncnc(OC(Cc4ccccc4)C(=O)O)c23)c(C)c1Cl (centres unmarked)', 21.6),
  ('Cc1ccc(-c2sc3ncnc(OC(Cc4ccccc4)C(=O)O)c3c2-c2ccc(OCCN3CCN(C)CC3)c(Cl)c2C)o1 (centres unmarked)', 1.5),
  ('CCN1CCN(CCOc2ccc(-c3c(-c4ccco4)sc4ncnc(OC(Cc5ccccc5OCCOC)C(=O)O)c34)c(C)c2Cl)CC1 (centres unmarked)', 0.108),
  ('Cc1c(-c2c(-c3ccc(F)cc3)sc3ncnc(OC(Cc4ccccc4OCc4cccc(-c5ccco5)n4)C(=O)O)c23)ccc(OCCN2CCN(C)CC2)c1Cl (centres unmarked)', 0.13),
  ('Cc1c(-c2c(-c3ccc(F)cc3)sc3ncnc(OC(Cc4ccccc4OCc4ccn(CC5CCCCC5)n4)C(=O)O)c23)ccc(OCCN2CCN(C)CC2)c1Cl (centres unmarked)', 0.494),
  ('CCc1sc2ncnc(OC(Cc3ccccc3)C(=O)O)c2c1-c1ccc(OCCN2CCNC2=O)c(Cl)c1C (centres unmarked)', 21.5),
  ('COc1ccc(-c2nccc(COc3ccccc3CC(Oc3ncnc4sc(-c5ccc(F)cc5)c(-c5ccc(OCCN6CCN(C)CC6)c(Cl)c5C)c34)C(=O)O)n2)cn1 (centres unmarked)', 0.008),
  ('Cc1c(-c2c(-c3ccc(F)cc3)sc3ncnc(OC(Cc4ccccc4OCc4ccnc(CC5CC5)n4)C(=O)O)c23)ccc(OCCN2CCN(C)CC2)c1Cl (centres unmarked)', 0.015),
  ('Cc1c(-c2c(-c3ccc(F)cc3)sc3ncnc(OC(Cc4ccccc4OCc4ccnc(-c5ccccc5)n4)C(=O)O)c23)ccc(OCCN2CCN(C)CC2)c1Cl (centres unmarked)', 0.007),
  ('CCCc1nccc(COc2ccccc2CC(Oc2ncnc3sc(-c4ccc(F)cc4)c(-c4ccc(OCCN5CCN(C)CC5)c(Cl)c4C)c23)C(=O)O)n1 (centres unmarked)', 0.007),
  ('COc1cc(-c2sc3ncnc(OC(Cc4ccccc4OCC(F)(F)F)C(=O)O)c3c2-c2ccc(OCCN3CCN(C)CC3)c(Cl)c2C)ccc1F (centres unmarked)', 0.162),
  ('COc1ccccc1Cn1nccc1COc1ccccc1CC(Oc1ncnc2sc(-c3ccc(F)cc3)c(-c3ccc(OCCN4CCN(C)CC4)c(Cl)c3C)c12)C(=O)O (centres unmarked)', 0.093),
  ('COc1ccccc1CC(Oc1ncnc2sc(-c3cnco3)c(-c3ccc(OCCN4CCN(C)CC4)c(Cl)c3C)c12)C(=O)O (centres unmarked)', 1.73),
  ('Cc1c(-c2c(-c3ccc(F)o3)sc3ncnc(OC(Cc4ccccc4OCc4ccc(F)cn4)C(=O)O)c23)ccc(OCCN2CCN(C)CC2)c1Cl (centres unmarked)', 0.047);
